Hey, just so you know, these numbers are from patent US5518735A.

What follows is a collection of Ki values obtained with UniProt:P00752.
Sequence (P00752 8-246): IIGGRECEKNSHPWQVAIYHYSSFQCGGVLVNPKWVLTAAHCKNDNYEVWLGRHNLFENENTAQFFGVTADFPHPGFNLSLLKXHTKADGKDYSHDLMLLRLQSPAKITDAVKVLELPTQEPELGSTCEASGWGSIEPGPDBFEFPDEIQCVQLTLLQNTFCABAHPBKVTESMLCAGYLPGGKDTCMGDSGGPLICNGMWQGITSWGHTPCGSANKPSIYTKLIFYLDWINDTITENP
Structures can show the parent of a compound that is named as a salt.

Observe how each entry below is paired with its result.
{"columns": ["Compound", "Target Or System", "Ki"],
 "data": [
  ["CN1CCN(C(=O)C(Cc2cccc(C(=N)N)c2)NS(=O)(=O)c2ccc3ccccc3c2)CC1 (racemic)", "UniProt:P00752", "> 1000 µM"],
  ["N=C(N)Nc1cccc(CC(NS(=O)(=O)c2ccc3ccccc3c2)C(=O)N2CCCCC2)c1 (racemic) [Compound 207, hydrochloride]", "UniProt:P00752", "> 1000 µM"],
  ["N=C(N)c1cccc(CC(NS(=O)(=O)c2ccc3ccccc3c2)C(=O)N2CCCCC2C(=O)O)c1 (racemic)", "UniProt:P00752", "~1000 µM"],
  ["CC1CCN(C(=O)C(Cc2cccc(N)c2)NS(=O)(=O)c2ccc3ccccc3c2)CC1 (racemic)", "UniProt:P00752", "> 1000 µM"],
  ["CC1CCN(C(=O)C(Cc2cccc(C(=N)N)c2)NS(=O)(=O)c2cccc3cccnc23)CC1 (racemic) [Compound 171, hydroiodide]", "UniProt:P00752", "260 µM"],
  ["N=C(NO)c1cccc(CC(NS(=O)(=O)c2ccc3ccccc3c2)C(=O)N2Cc3ccccc3CC2C(=O)O)c1 (racemic) [Compound 190, hydroiodide]", "UniProt:P00752", "> 1000 µM"]
]}

Please turn your attention to the following entry.
Task: Entry COC(=O)[C@H]1CCCN1C(=O)[C@H](Cc1cccc(C(=N)N)c1)NS(=O)(=O)c1ccc2ccccc2c1 [Compound 124, hydrochloride] , system UniProt:P00752: what Ki was measured?
Result: > 1000 µM
